assay: Cytotoxicity against human ZR-75-1 cells after 3 days by sulforhodamine B assay; format: cell-based; conditions: read-out: ED50
Entries annotated with measured CC50 at 72 h

| Compound | CC50 at 72 h |
| --- | --- |
| COc1ccc2cc1Oc1ccc(cc1)C[C@H]1c3cc(c(OC)cc3CCN1C)Oc1c(O)c(OC)cc3c1[C@@H](C2)NCC3 | 1.2 µg/mL |
| COc1ccc2cc1Oc1ccc(cc1)C[C@H]1c3c(cc(OC)c(O)c3Oc3cc4c(cc3OC)CCN[C@@H]4C2)CCN1C | 1.8 µg/mL |
| COc1ccc2cc1Oc1ccc(cc1)C[C@H]1c3c(cc(O)c(OC)c3Oc3cc4c(cc3OC)CCN(C)[C@@H]4C2)CCN1C | 2.1 µg/mL |
| COc1ccc2cc1Oc1ccc(cc1)C[C@H]1c3c(cc(OC)c4c3Oc3cc5c(cc3O4)CCN=C5C2)CCN1C | 0.7 µg/mL |
| COc1ccc2cc1Oc1ccc(cc1)C[C@H]1c3cc(c(OC)cc3CCN1C)Oc1c(OC)c(OC)cc3c1[C@@H](C2)NCC3 | 1.8 µg/mL |
| COc1ccc2cc1Oc1ccc(cc1)C[C@H]1c3cc(c(OC)cc3CCN1C)Oc1c(OC)c(OC)cc3c1[C@@H](C2)N(C)CC3 | 5 µg/mL |
| CCN(CC)CCCC(C)Nc1ccnc2cc(Cl)ccc12 (configuration not stated) [CHLOROQUINE] | 15.8 µg/mL |

Values were extracted from ChEMBL document CHEMBL1147331.
